- Test system: HEL
- assay-procedure: Concentration required to inhibit VZV (oka) induced cytopathogenicity in HEL cells by 50%.
- Type: functional
- experimental-context: Homo sapiens
measure: MIC (µg/mL)
Answers are plain numbers, in µg/mL.

Some compounds with recorded MIC:
CC1[C@@H](O)[C@@H](CO)O[C@@H]1n1cc(I)c(=O)[nH]c1=O (stereo partly drawn); 15
O=c1[nH]c(=O)n(C2O[C@H](CO)[C@@H](O)[C@@H]2O)cc1-c1cccs1 (stereo partly drawn); 5.5

Now for a further compound.
[Q] Input O=c1[nH]c(=O)n([C@H]2C[C@H](O)[C@@H](CO)O2)cc1-c1ccc(Br)s1 , output reported MIC.
[A] 0.03

----------
Can you tell me MIC for the items I'm about to list?
- Tested on: E6SM
- assay-procedure: Concentration required to inhibit HSV-2(196) induced cytopathogenicity in E6SM cells by 50%.
- Assay type: functional
- experimental-context: Homo sapiens
One number for each entry, in µg/mL.

O=c1[nH]c(=O)n([C@H]2C[C@H](O)[C@@H](CO)O2)cc1-c1ccc(Cl)o1; 150

[Q] Input O=c1[nH]c(=O)n(C2O[C@H](CO)[C@@H](O)[C@@H]2O)cc1-c1cccs1 (some centres undefined) , output reported MIC.
[A] 100

----------
Can you tell me MIC for the items I'm about to list?
- System: E6SM
- assay-procedure: Concentration required to inhibit HSV-2(196) induced cytopathogenicity in E6SM cells by 50%.
- Type: functional
- experimental-context: Homo sapiens
Give bare numbers, in µg/mL.

Some compounds with recorded MIC:
CC1[C@@H](O)[C@@H](CO)O[C@@H]1n1cc(I)c(=O)[nH]c1=O (some centres undefined); 300
O=c1[nH]c(=O)n([C@@H]2C[C@@H](O)[C@@H](CO)O2)cc1-c1ccco1; 150
O=c1[nH]c(=O)n([C@H]2C[C@H](O)[C@@H](CO)O2)cc1-c1ccc(Br)o1; 150
O=c1[nH]c(=O)n([C@H]2C[C@H](O)[C@@H](CO)O2)cc1-c1cccs1; 150
Nc1nc(=O)n([C@H]2C[C@H](O)[C@@H](CO)O2)cc1-c1cccs1; 20

Now for a further compound.
[Q] Input O=c1[nH]c(=O)n([C@@H]2C[C@H](O)[C@@H](CO)O2)cc1-c1cccs1 , output reported MIC.
[A] 150

----------
- Tested on: E6SM
- assay-procedure: Concentration required to inhibit TK-HSV-1 (VMW1837) induced cytopathogenicity in E6SM cells by 50%.
- Type: functional
- experimental-context: Homo sapiens
measure: MIC (µg/mL)
Give bare numbers, in µg/mL.

O=c1[nH]c(=O)n([C@H]2C[C@H](O)[C@@H](CO)O2)cc1-c1ccc(Cl)o1; 150

Answer for every listed entry: what is its MIC? The entries follow.
1. O=c1[nH]c(=O)n([C@@H]2C[C@H](O)[C@@H](CO)O2)cc1-c1cccs1
2. O=c1[nH]c(=O)n([C@H]2C[C@H](O)[C@@H](CO)O2)cc1-c1ccco1
3. O=c1[nH]c(=O)n([C@H]2C[C@H](O)[C@@H](CO)O2)cc1-c1ccc(Br)s1
4. O=c1[nH]c(=O)n([C@H]2C[C@H](O)[C@@H](CO)O2)cc1/C=C/Br [BRIVUDINE]

[A]
1. 150
2. 300
3. 150
4. 4

Answer for every listed entry: what is its MIC? The entries follow.
1. CC1[C@@H](O)[C@@H](CO)O[C@@H]1n1cc(I)c(=O)[nH]c1=O (some centres not stated)
2. O=c1[nH]c(=O)n([C@H]2C[C@H](O)[C@@H](CO)O2)cc1-c1cccs1
3. O=c1[nH]c(=O)n([C@@H]2C[C@@H](O)[C@@H](CO)O2)cc1-c1ccco1

[A]
[150, 150, 70]

----------
- Test system: HEL
- assay-procedure: Concentration required to inhibit VZV (oka) induced cytopathogenicity in HEL cells by 50%.
- Type: functional
- experimental-context: Homo sapiens
Can you tell me MIC for the items I'm about to list?

Some compounds with recorded MIC:
O=c1[nH]c(=O)n([C@H]2C[C@H](O)[C@@H](CO)O2)cc1-c1ccc(Cl)s1; 0.02 µg/mL
Cn1ccnc1-c1cn([C@H]2C[C@H](O)[C@@H](CO)O2)c(=O)[nH]c1=O; > 400 µg/mL
O=c1[nH]c(=O)n([C@H]2C[C@H](O)[C@@H](CO)O2)cc1-c1ccco1; 4 µg/mL

Answer for every listed entry: what is its MIC? The entries follow.
1. O=c1[nH]c(=O)n([C@@H]2C[C@@H](O)[C@@H](CO)O2)cc1-c1ccco1
2. O=c1[nH]c(=O)n([C@H]2C[C@H](O)[C@@H](CO)O2)cc1-c1cccs1

[A]
210 µg/mL
18 µg/mL

----------
- Tested on: E6SM
- assay-procedure: Concentration required to inhibit HSV-2(196) induced cytopathogenicity in E6SM cells by 50%.
- Assay type: functional
- experimental-context: Homo sapiens
Can you tell me MIC for the items I'm about to list?

Some molecules with recorded MIC:
O=c1[nH]c(=O)n([C@H]2C[C@H](O)[C@@H](CO)O2)cc1-c1ccc(Br)s1; > 200 µg/mL
O=c1[nH]c(=O)n([C@H]2C[C@H](O)[C@@H](CO)O2)cc1-c1ccco1; > 400 µg/mL

[Q] Input O=c1[nH]c(=O)n([C@H]2C[C@H](O)[C@@H](CO)O2)cc1/C=C/Br [BRIVUDINE] , output reported MIC.
[A] > 400 µg/mL

----------
- Test system: E6SM
- assay-procedure: Concentration required to inhibit TK-HSV-1 (VMW1837) induced cytopathogenicity in E6SM cells by 50%.
- Format: functional
- experimental-context: Homo sapiens
measure: MIC

Some molecules with recorded MIC:
O=c1[nH]c(=O)n([C@H]2C[C@H](O)[C@@H](CO)O2)cc1-c1ccc(Cl)s1; > 200 µg/mL
Nc1nc(=O)n([C@H]2C[C@H](O)[C@@H](CO)O2)cc1-c1cccs1; > 100 µg/mL
O=c1[nH]c(=O)n(C2O[C@H](CO)[C@@H](O)[C@@H]2O)cc1-c1cccs1 (some centres undefined); > 400 µg/mL

Now for a further molecule.
[Q] Input Cn1ccnc1-c1cn([C@H]2C[C@H](O)[C@@H](CO)O2)c(=O)[nH]c1=O , output reported MIC.
[A] > 200 µg/mL

Where do these numbers come from? They come from ChEMBL document CHEMBL1125605.
